Quick record of IC50 values for PDE7A (Homo sapiens, UniProt Q13946).
One number for each entry, in µM.

O=C(Nc1ncc([N+](=O)[O-])s1)c1ccccc1O [Tizoxanide]	134

[ask] # return recorded IC50 for entry O=C(Nc1ccc([N+](=O)[O-])cc1Cl)c1cc(Cl)ccc1O [Niclosamide]
[reply] 19.1

* * *

- system: PDE10A (Homo sapiens, UniProt Q9Y233)
- Sequence (Q9Y233 whole entry, species assumed): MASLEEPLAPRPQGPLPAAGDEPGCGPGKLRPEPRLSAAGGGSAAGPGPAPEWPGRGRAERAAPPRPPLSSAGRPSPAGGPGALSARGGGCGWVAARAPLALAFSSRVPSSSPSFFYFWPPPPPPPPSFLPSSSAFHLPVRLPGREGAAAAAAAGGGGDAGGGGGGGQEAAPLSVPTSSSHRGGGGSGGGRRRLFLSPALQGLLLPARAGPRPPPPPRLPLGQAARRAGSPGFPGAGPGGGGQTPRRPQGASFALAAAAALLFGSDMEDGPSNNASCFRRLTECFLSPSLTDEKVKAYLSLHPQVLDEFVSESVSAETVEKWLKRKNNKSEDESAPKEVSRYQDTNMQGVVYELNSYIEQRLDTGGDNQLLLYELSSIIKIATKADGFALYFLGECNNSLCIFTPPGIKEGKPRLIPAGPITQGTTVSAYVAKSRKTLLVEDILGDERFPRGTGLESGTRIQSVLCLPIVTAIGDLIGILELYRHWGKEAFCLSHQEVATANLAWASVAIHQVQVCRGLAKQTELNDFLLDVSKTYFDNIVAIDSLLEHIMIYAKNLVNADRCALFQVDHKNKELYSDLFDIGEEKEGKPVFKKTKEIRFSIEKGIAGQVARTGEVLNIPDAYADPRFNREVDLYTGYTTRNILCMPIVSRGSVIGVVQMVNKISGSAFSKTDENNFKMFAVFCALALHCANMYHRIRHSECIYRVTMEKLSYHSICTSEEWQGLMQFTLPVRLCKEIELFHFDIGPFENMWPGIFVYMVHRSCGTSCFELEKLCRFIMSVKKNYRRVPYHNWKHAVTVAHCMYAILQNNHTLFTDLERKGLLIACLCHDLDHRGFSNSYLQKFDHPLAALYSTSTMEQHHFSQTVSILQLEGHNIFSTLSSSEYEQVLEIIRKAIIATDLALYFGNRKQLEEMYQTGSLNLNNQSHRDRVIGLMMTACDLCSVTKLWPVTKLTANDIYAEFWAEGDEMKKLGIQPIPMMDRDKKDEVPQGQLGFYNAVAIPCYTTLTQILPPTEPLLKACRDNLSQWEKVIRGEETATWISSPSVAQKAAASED
measured.attribute: IC50 (µM)
Numbers only, in µM.

[ask] # return recorded IC50 for entry O=C(Nc1ccc([N+](=O)[O-])cc1Cl)c1cc(Cl)ccc1O [Niclosamide]
[reply] 19

* * *

pIC50: −log10 of the molar value.
Quick record of pIC50 values for PDE4B (Homo sapiens, UniProt Q07343).

// known answers, use as guide
O=C(Nc1ncc([N+](=O)[O-])s1)c1ccccc1O [Tizoxanide]	< 3.30
CC(=O)Oc1ccccc1C(=O)Nc1ncc([N+](=O)[O-])s1 [Nitazoxanide]	< 3.30

[ask] # return recorded pIC50 for entry O=C(Nc1ccc([N+](=O)[O-])cc1Cl)c1cc(Cl)ccc1O [Niclosamide]
[reply] 4.16

* * *

- system: PDE4A (Homo sapiens, UniProt P27815)
- Sequence (P27815 whole entry, species assumed): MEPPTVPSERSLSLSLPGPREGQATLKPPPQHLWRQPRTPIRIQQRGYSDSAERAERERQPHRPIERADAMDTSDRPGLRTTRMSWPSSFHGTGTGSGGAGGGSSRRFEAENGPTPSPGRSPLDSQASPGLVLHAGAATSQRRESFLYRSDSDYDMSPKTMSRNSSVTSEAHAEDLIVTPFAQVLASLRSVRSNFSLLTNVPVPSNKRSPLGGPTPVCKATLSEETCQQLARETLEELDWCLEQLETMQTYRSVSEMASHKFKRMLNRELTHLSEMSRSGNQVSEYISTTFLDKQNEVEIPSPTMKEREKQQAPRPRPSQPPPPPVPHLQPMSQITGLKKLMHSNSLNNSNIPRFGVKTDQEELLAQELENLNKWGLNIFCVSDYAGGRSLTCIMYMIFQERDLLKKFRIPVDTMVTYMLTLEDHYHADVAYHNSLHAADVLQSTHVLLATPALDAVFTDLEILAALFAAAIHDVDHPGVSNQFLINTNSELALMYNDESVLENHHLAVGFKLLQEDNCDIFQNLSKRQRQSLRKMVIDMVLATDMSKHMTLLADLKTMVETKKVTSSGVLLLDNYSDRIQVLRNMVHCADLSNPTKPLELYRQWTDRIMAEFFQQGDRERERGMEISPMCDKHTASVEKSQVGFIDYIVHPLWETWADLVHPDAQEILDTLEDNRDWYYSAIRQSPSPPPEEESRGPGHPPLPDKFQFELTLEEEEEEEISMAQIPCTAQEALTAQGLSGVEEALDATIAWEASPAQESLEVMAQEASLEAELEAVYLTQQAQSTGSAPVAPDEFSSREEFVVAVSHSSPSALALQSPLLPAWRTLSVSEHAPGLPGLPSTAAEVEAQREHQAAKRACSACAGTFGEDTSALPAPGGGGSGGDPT
measured.attribute: IC50 (µM)
Answers are plain numbers, in µM.

[ask] # return recorded IC50 for entry O=C(Nc1ccc([N+](=O)[O-])cc1Cl)c1cc(Cl)ccc1O [Niclosamide]
[reply] 100

* * *

Quick record of IC50 values for PDE1A (Homo sapiens).
Answers are plain numbers, in µM.

// known answers, use as guide
O=C(Nc1ncc([N+](=O)[O-])s1)c1ccccc1O [Tizoxanide]	96.1
O=C(Nc1ccc([N+](=O)[O-])cc1Cl)c1cc(Cl)ccc1O [Niclosamide]	88.7

Continue with the compound presented below.
[ask] # return recorded IC50 for entry CC(=O)Oc1ccccc1C(=O)Nc1ncc([N+](=O)[O-])s1 [Nitazoxanide]
[reply] 137

* * *

Quick record of pIC50 values for PDE5A (Homo sapiens, UniProt O76074).
Give bare numbers, as −log10 of the molar value.

O=C(Nc1ncc([N+](=O)[O-])s1)c1ccccc1O [Tizoxanide]	3.87

Continue with the molecule presented below.
[ask] # return recorded pIC50 for entry O=C(Nc1ccc([N+](=O)[O-])cc1Cl)c1cc(Cl)ccc1O [Niclosamide]
[reply] 4.78

* * *

- system: PDE9A (Homo sapiens, UniProt O76083)
- Sequence (O76083 whole entry, species assumed): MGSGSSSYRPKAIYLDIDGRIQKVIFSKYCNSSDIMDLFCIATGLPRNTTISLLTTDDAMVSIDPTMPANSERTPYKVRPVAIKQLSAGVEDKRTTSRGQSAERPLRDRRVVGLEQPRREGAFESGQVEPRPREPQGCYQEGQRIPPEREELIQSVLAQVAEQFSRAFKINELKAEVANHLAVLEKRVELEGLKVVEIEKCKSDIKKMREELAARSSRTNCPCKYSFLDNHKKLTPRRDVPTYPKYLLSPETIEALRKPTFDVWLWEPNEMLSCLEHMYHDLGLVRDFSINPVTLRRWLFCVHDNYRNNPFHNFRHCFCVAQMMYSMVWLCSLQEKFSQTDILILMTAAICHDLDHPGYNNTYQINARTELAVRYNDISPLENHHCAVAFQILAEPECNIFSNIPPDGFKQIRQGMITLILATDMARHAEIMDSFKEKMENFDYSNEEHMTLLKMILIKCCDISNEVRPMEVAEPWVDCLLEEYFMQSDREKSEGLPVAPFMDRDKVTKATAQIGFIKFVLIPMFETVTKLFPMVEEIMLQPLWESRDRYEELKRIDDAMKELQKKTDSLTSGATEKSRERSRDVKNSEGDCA
- assay.procedure: Fluorescence polarization assay PDE9A
- Type: biochemical
- experimental.setup: substrate cGMP
measured.attribute: pIC50
Give bare numbers, as −log10 of the molar value.

[ask] # return recorded pIC50 for entry O=C(Nc1ccc([N+](=O)[O-])cc1Cl)c1cc(Cl)ccc1O [Niclosamide]
[reply] 4.22

* * *

- system: PDE4C (Homo sapiens)
- Sequence (Q08493 whole entry, species assumed): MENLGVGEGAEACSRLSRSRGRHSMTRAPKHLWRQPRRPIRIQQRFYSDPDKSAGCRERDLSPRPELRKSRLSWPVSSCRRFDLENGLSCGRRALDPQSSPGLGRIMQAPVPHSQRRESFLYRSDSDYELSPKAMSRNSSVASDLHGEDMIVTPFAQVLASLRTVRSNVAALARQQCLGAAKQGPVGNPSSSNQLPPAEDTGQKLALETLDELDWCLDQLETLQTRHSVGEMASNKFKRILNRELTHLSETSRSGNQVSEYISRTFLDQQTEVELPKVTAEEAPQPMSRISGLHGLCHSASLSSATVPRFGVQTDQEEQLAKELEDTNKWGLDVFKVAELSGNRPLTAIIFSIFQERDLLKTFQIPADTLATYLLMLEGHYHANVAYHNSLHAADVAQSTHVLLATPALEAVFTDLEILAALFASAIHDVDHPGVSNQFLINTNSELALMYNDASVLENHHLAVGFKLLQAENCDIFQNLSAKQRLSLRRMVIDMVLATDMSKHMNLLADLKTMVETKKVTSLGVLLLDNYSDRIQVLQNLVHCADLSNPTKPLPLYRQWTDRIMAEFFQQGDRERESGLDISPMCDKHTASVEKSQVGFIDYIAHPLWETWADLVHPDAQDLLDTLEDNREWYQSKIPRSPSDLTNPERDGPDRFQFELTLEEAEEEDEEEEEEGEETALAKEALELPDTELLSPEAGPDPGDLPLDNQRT
- assay.procedure: Fluorescence polarization assay PDE4C
- Format: biochemical
- experimental.setup: substrate cAMP
Please respond with reported pIC50 for every item in the list.
Give bare numbers, as −log10 of the molar value.

O=C(Nc1ccc([N+](=O)[O-])cc1Cl)c1cc(Cl)ccc1O [Niclosamide]	4.69

Continue with the compound presented below.
[ask] Determine reported pIC50 for O=C(Nc1ncc([N+](=O)[O-])s1)c1ccccc1O [Tizoxanide] ; test system: PDE4C (Homo sapiens).
[reply] 3.44

From: patent US11786492B2
